Listing of recorded PBM 8-mer E-score by entry.
Test system: 2Sp-muMax20 (muMax20 with two 2,6-bis(methyl)pyridine Cys staples)
measurementDescription: PBM 8-mer E-score (E-score (rank enrichment, -0.5 to 0.5)); higher = stronger preferential binding
Whole data set: some 33,000 sequences, median “E-score (rank enrichment, -0.5 to 0.5)” near -0.0043, cut for the highest 2% near 0.24. What follows is part of a selection rich in the highest values, with near analogues and random picks from the rest.
Enter a number only.

Take a look at these entries with their results.
seq: CTGGATCA
PBM 8-mer E-score: -0.158

seq: ATACTGTC
PBM 8-mer E-score: 0.183

[Q] # lookup: PBM 8-mer E-score of `ACCGGTCC`
[A] -0.324

[Q] # lookup: PBM 8-mer E-score of `GTCTGGAA`
[A] -0.0499

[Q] # lookup: PBM 8-mer E-score of `AAATGTTA`
[A] 0.156

[Q] # lookup: PBM 8-mer E-score of `CTTAAGTC`
[A] -0.0675

[Q] # lookup: PBM 8-mer E-score of `ACCGCCCT`
[A] -0.0858

[Q] # lookup: PBM 8-mer E-score of `AGATGTTG`
[A] -0.146

[Q] # lookup: PBM 8-mer E-score of `GCATGTTA`
[A] 0.252

[Q] # lookup: PBM 8-mer E-score of `ATTTGTTG`
[A] 0.266

[Q] # lookup: PBM 8-mer E-score of `CGTTATGC`
[A] 0.177
